I'd be grateful if you could share measured Human M4 Emin for these entries.
Biological target: Human M4 (Homo sapiens, UniProt P08173)
Construct: Human or rat M4 cDNA, along with the chimeric G protein Gqi5, were transfected into Chinese hamster ovary (CHO-K1) cells; expressed in transfected cells; host or cells: CHO-K1 (Chinese hamster ovary, ATCC), stably co-expressing Gqi5
Sequence (P08173 1-479): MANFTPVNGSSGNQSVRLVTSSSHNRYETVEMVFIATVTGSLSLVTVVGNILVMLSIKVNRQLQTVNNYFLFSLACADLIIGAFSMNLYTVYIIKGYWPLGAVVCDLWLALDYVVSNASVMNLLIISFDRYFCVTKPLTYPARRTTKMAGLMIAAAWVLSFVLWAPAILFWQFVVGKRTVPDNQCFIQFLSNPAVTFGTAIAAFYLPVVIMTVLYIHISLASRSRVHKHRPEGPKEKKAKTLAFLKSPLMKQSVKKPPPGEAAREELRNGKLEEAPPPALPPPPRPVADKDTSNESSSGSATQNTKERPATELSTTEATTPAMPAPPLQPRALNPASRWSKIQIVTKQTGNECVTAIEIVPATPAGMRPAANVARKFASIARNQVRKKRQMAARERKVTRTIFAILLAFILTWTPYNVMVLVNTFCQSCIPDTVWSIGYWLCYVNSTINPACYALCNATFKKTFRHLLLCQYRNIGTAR
Assay: mAChR M4 cell-based functional assay (calcium flux, decrease of EC80 acetylcholine response)
Conditions: % ACh maximum at 30 μM
Answer with a number only, understood to be in %.

[Q] // Human M4 Emin lookup, key: Cc1ccc(F)cc1-c1cc(C(F)(F)F)c(N[C@H]2C[C@@H]3CN(CC4CCCOC4)C[C@@H]3C2)nn1 (single isomer, unassigned) [Example 121]
[A] 3

[Q] Query: Human M4 Emin; subject: Cn1cc2cc(-c3nnc(N[C@H]4C[C@@H]5CN(CC6CCOCC6)C[C@@H]5C4)cc3C(F)(F)F)ccc2n1 [Example 1]
[A] 2

[Q] If you can, please state the reported Human M4 Emin value of Cn1cc2cc(-c3cc(C(F)(F)F)c(N[C@H]4C[C@@H]5CN(CC6CCCOC6)C[C@@H]5C4)nn3)ccc2n1 (single isomer, unassigned) [Example 37] .
[A] 5
